- test-target: LHRH receptor (LHRH binding sites) on EFO-27 human ovarian cancer cells (human)
- procedure-summary: competition with [125I-Tyr8]BRU-2477, EFO-27 cells
Non-standard residues stand in square brackets, D forms with d. Primed or numbered codes have the meaning given here. azaGly′ = aza-glycine residue at the C-terminus, with NH2; Bpa = N[C@@H](Cc1ccc(C(=O)c2ccccc2)cc1)C(=O)O; d2Nal = N[C@H](Cc1ccc2ccccc2c1)C(=O)O; DO3A10CM = not defined here; Damfe4 = not defined here; Ampg4 = not defined here; azaGly = NNC(=O)O
Each entry below lists one item and its recorded EC50 value.

binder | EC50, nM
XRWNHXWXPX (N-terminal DO3A10CM; Dnal2 at 1; Darg at 6; Bpa4 at 8; azaGly-NH2 at 10) [BRU-2956] | 270
XRWSHXWXP (N-terminal DO3A10CM; Da48oa linker before 1; Dnal2 at 1; Darg at 6; Bpa4 at 8; C-terminal Da15o3pt at 10) [BRU-3100] | 140
DO3A10CM-[d2Nal][Ampg4]WSH[dR]W[Bpa]P[azaGly′]-NH2 (reading uncertain; also: printed as DO3A10CM-Dnal2-Ampg4-Trp-Ser-His-Darg-Trp-Bpa4-Pro-azaGly-NH2) [BRU-3060] | 340
DO3A10CM-[Damfe4][Damfe4]WSH[dR]W[Bpa]P[azaGly]-NH2 (reading uncertain) [BRU-3095] | 290
XRWSHXWXP (N-terminal DO3A10CM; Dnal2 at 1; Darg at 6; Bpa4 at 8; C-terminal Pheol at 10) [BRU-2983] | 450
XRWSHXWXPX (N-terminal DO3A10CM; Bip at 1; Darg at 6; Bpa4 at 8; azaGly-NH2 at 10) [BRU-3070] | 280
